# tested_on: tryptase
# experimental_details: In vitro tryptase inhibition assay
# condition_notes: tosyl-Gly-Pro-Lys-p-nitroanilide 0.5 mM; 1 h preincubation at room temperature; pH 8.2
pKi: −log10 of the molar value.
Threshold rule: pKi greater than or equal to 7 is true (1); below that, false (0).

Study these solved cases before continuing.
Does pKi meet or surpass 7 for NCc1ccc(CNC(=O)CCCNC(=O)c2ccc(C(=O)NCCCC(=O)NCc3ccc(CN)cc3)cc2)cc1 ? true (1)

Also CN(Cc1ccc(CN)cc1)C(=O)CCC(=O)NCc1ccc(CNC(=O)CCC(=O)N(C)Cc2ccc(CN)cc2)cc1 , if possible. false (0)

Also N=C(N)Nc1ccc(CNC(=O)CCC(=O)NCc2ccc(CNC(=O)CCC(=O)NCc3ccc(NC(=N)N)cc3)cc2)cc1 , if possible. true (1)

Also NCC1CCC(CNC(=O)CNC(=O)OCc2ccc(COC(=O)NCC(=O)NCC3CCC(CN)CC3)cc2)CC1 (stereo not shown) , if possible. true (1)

Moving on to another molecule below.
Does pKi meet or surpass 7 for N=C(N)Nc1ccc(CNC(=O)[C@@H]2CCCN2C(=O)OCc2ccc(COC(=O)N3CCC[C@H]3C(=O)NCc3ccc(NC(=N)N)cc3)cc2)cc1 ? false (0)

---

# tested_on: tryptase
# experimental_details: In vitro tryptase inhibition assay
# condition_notes: tosyl-Gly-Pro-Lys-p-nitroanilide 0.5 mM; 1 h preincubation at room temperature; pH 8.2
Task for the reader: assign each of the following molecules its reported Ki.
I'd appreciate it if you included the unit after the number.

Take a look at these entries with their results.
Give Ki (tryptase) of the following molecule: NCc1ccc(C(=O)NCCCCNC(=O)c2ccc(C(=O)NCCCCNC(=O)c3ccc(CN)cc3)cc2)cc1 222 nM

Also CN(Cc1ccc(CN(C)C(=O)CCCC(=O)NCc2ccc(CN)cc2)cc1)C(=O)CCCC(=O)NCc1ccc(CN)cc1 , if possible. 14 nM

Also NCc1ccc(CNC(=O)CC(=O)NCc2ccc(CNC(=O)CC(=O)NCc3ccc(CN)cc3)cc2)cc1 , if possible. 150 nM

New cases:
Give Ki (tryptase) of the following molecule: C[C@H](NC(=O)OCc1ccc(COC(=O)N[C@@H](C)C(=O)NCc2ccc(CN)cc2)cc1)C(=O)NCc1ccc(CN)cc1 31 nM

---

Task for the reader: assign each of the following compounds its reported Ki.
# tested_on: tryptase
# experimental_details: In vitro tryptase inhibition assay
# condition_notes: tosyl-Gly-Pro-Lys-p-nitroanilide 0.5 mM; 1 h preincubation at room temperature; pH 8.2
Give bare numbers, in nM.

Take a look at these entries with their results.
For C[C@H](NC(=O)OCc1ccc(COC(=O)N[C@@H](C)C(=O)NCc2ccc(NC(=N)N)cc2)cc1)C(=O)NCc1ccc(NC(=N)N)cc1 [Example 5] , what is its reported Ki? 289

Also NCC1CCC(CNC(=O)CCCC(=O)NCc2ccc(CNC(=O)CCCC(=O)NCC3CCC(CN)CC3)cc2)CC1 (stereo not shown) [Example 24] , if possible. 55

Give me Ki for each of these compounds, listed below.
1. C[C@@H](NC(=O)OCc1ccc(COC(=O)N[C@H](C)C(=O)NCc2ccc(CN)cc2)cc1)C(=O)NCc1ccc(CN)cc1 [Example 14]
2. N=C(N)Nc1ccc(CNC(=O)CC(=O)NCc2ccc(CNC(=O)CC(=O)NCc3ccc(NC(=N)N)cc3)cc2)cc1 [Example 36]
3. NCc1cccc(CNC(=O)CNC(=O)OCc2ccc(COC(=O)NCC(=O)NCc3cccc(CN)c3)cc2)c1 [Example 44]
4. CN(Cc1ccc(CN(C)C(=O)CCC(=O)NCc2ccc(CN)cc2)cc1)C(=O)CCC(=O)NCc1ccc(CN)cc1 [Example 23]
5. CN(CC(=O)NCc1ccc(CN)cc1)C(=O)OCc1ccc(COC(=O)N(C)CC(=O)NCc2ccc(CN)cc2)cc1 [Example 18]

366
682
55
5
5

The measured values listed here are drawn from patent US5656660A.
